Item-by-item account of inhibition
# System: T-cell receptor (TCR)
# Protocol summary: small molecules blocking TCR binding to CD3 – biochemical, fluorescence, TAMRA-labeled TCR probe, primary screen (AID 651800);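 also: recombinant mutant TCR 2C K166C tagged with TAMRA read by polarization; 0% = receptor in buffer alone and 100% = receptor with positive control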
# Run parameters: at 9.4 µM, active compounds read high
Out of some 360,000 compounds screened, about 1,300 (0.36%) were called active. Shown is part of a subset that was picked to be rich in actives.
Numbers only here, please. The scale is %.

The following compounds have reported results that may help.
{"Compound": "COC(=O)C1=C(C)N(Cc2cccc(C(F)(F)F)c2)C(=NCc2ccccc2)NC1c1ccccc1C(F)(F)F (centres undefined)", "Measure unit": "%", "inhibition": 2.13}
{"Compound": "COc1cc2ccc(C(C)=O)c(O)c2cc1OC", "Measure unit": "%", "inhibition": -7.1}
{"Compound": "CCCN1C(=O)c2[nH]nc(-c3ccccc3)c2C1c1ccccc1 (centres undefined)", "Measure unit": "%", "inhibition": 1.37}
{"Compound": "CCOC(=O)Cn1c2c(n(-c3ccc(F)cc3)c1=O)C=C(c1ccccc1)[C@@H](C)C(C(=O)N(C)C1CCCCC1)=C2", "Measure unit": "%", "inhibition": 5.23}
{"Compound": "CCN(CC)CCCC(C)n1c2nc(=O)[nH]c(=O)c-2nc2cc(Cl)ccc21 (centres undefined)", "Measure unit": "%", "inhibition": 54.6}

Exam item: I would be grateful if you could share the reported inhibition for "Cc1ccc(N)cc1CN1CCN(c2ncc(Cc3ccccc3)cn2)CC1" .
Marked response: 3.41

Exam item: I would be grateful if you could share the reported inhibition for "COC(=O)Nc1nc2ccc(C(=O)C3CC3)cc2[nH]1" .
Marked response: 2.68

Exam item: I would be grateful if you could share the reported inhibition for COC(=O)C1=C(C(=O)OC)C2C=C(C(C)C)C1C(=O)C2(C)O (centres undefined) .
Marked response: -5.88

Exam item: I would be grateful if you could share the reported inhibition for "O=C(NS(=O)(=O)c1cccs1)[C@H]1O[C@@H](n2ccc(=O)[nH]c2=O)[C@H](O)[C@@H]1O" .
Marked response: -0.49

Exam item: I would be grateful if you could share the reported inhibition for "C(=N/N1CCN(c2ccccc2)CC1)/c1cccs1" .
Marked response: 4.89

Exam item: I would be grateful if you could share the reported inhibition for "COC(=O)[C@]12C[C@H](CC(=O)NCCCCc3ccccc3)C(=O)N(Cc3ccc4c(c3)OCO4)C1=C[C@H](C(C)(C)C)O[C@@H]2C" .
Marked response: -0.56

Exam item: I would be grateful if you could share the reported inhibition for CC(NC(=S)Nc1ccc(S(N)(=O)=O)cc1)c1ccc2c(c1)OCO2 (centres undefined) .
Marked response: -3.8

* * *

# Test system: T-cell receptor (TCR)
# Protocol summary: small molecules blocking TCR binding to CD3 – biochemical, fluorescence, TAMRA-labeled TCR probe, primary screen (AID 651800);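 also: recombinant mutant TCR 2C K166C tagged with TAMRA read by polarization; 0% = receptor in buffer alone and 100% = receptor with positive control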
# Run parameters: at 9.4 µM
The whole screen tested about 360,000 compounds, of which about 1,300 (0.36%) were called active. Rule as the data show it: active = inhibition above about 19%; inactive = the rest. The sample as a whole holds a higher share of actives than the screen did.
Would you mind answering with one of these outcomes? active, inactive

{"Molecule": "CC12CCC(C(=O)N(NC(=O)c3ccccc3O)C1=O)C2(C)C (stereo unspecified)", "Label value": "active"}
{"Molecule": "COc1cccc(NC(=O)N(C)C[C@@H]2OCc3cn(nn3)CCCC(=O)N([C@@H](C)CO)C[C@H]2C)c1", "Label value": "inactive"}
{"Molecule": "COC(=O)[C@]12C[C@H](CC(=O)NCc3cccc(C(F)(F)F)c3)C(=O)N(Cc3ccc4c(c3)OCO4)C1=C[C@H](COCc1ccccc1)O[C@@H]2C", "Label value": "inactive"}
{"Molecule": "Cc1cc2c(nc1C)CCCN2C", "Label value": "inactive"}
{"Molecule": "CN(C)C(=O)c1cccn(Cc2cccc(C(F)(F)F)c2)c1=O", "Label value": "inactive"}

Exam item: Record lookup: outcome of this test for Cc1ccc(C)c(CN2CCC(CNC(=O)C3CCCN(c4ncnc5c4nc4n5CCCCC4)C3)CC2)c1 (stereo unspecified) ?
Marked response: inactive
